Each record here notes measured pEC50.
Target: full-length B-Catenin (Uniprot ID P35222) (Homo sapiens)
Construct: 65 nM full-length B-Catenin (Uniprot ID P35222)
Sequence (P35222 whole entry): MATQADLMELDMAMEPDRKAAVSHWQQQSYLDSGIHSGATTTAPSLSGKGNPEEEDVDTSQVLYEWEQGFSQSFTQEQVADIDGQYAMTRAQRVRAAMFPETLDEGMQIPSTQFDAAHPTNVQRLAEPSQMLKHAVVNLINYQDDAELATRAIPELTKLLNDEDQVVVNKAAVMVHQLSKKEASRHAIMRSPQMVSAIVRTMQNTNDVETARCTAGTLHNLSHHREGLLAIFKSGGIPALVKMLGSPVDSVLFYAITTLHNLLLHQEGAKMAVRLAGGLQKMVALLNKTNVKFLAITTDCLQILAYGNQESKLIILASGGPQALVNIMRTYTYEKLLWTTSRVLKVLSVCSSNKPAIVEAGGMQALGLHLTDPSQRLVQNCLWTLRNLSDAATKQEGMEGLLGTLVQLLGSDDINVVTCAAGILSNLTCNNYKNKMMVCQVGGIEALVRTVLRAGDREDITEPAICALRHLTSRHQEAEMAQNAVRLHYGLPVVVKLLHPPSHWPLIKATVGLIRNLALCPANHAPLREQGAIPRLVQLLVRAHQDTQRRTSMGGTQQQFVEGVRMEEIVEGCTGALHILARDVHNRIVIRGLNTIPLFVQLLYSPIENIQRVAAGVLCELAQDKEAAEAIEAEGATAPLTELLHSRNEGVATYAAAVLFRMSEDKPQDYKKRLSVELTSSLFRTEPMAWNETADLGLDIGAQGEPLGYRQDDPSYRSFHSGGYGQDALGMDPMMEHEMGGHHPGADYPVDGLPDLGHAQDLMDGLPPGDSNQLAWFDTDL
Test: Alphascreen binding assay (beta-catenin / biotin-TCF4 10-53)
Method: In some embodiments, an assay is an Alphascreen binding assay. A useful protocol is described below as an example. Alphascreen binding assay: Using the AlphaScreen Histidine (Nickel Chelate) Detection Kit (PerkinElmer), peptide solutions were prepared in buffer (50 mM Tris pH 8.0, 250 mM NaCl, 2% glycerol, 0.03% Tween-20, 0.01% TritonX-100, 0.1% BSA w/v) using a 3-fold serial dilution from 10 uM to 5 nM. […]
# pEC50: negative log10 of molar concentration; output just the value

1. CC(=O)N1CCC[C@]12CC=CCCCC1(CCCC=CCCCCCC[C@@](C)(C(=O)N[C@@H](Cc3ccccc3)C(=O)N[C@@H](Cc3c[nH]c4ccccc34)C(=O)N[C@@H](CCC(N)=O)C(N)=O)NC(=O)[C@H](C(C)C)NC(=O)[C@H](Cc3cc(F)cc(F)c3)NC(=O)[C@H](C)NC(=O)[C@H](C)NC(=O)[C@H](CCC(=O)O)NC(=O)[C@H](CC(=O)O)NC1=O)NC(=O)[C@H](C)NC(=O)[C@H](CC(=O)O)NC2=O (some centres unmarked) | 6.88

// next entry
molecule CC(=O)N1CCC[C@]12CC=CCCCC1(CCCC=CCCCCCC[C@@](C)(C(=O)N[C@@H](Cc3ccccc3)C(=O)N[C@@H](Cc3c[nH]c4ccccc34)C(=O)N[C@@H](CCC(N)=O)C(N)=O)NC(=O)[C@H](C(C)C)NC(=O)[C@H](Cc3ccc(N)cc3)NC(=O)[C@H](C)NC(=O)[C@H](C)NC(=O)[C@H](CC(=O)O)NC(=O)[C@H](CC(=O)O)NC1=O)NC(=O)[C@H](C)NC(=O)[C@H](CC(=O)O)NC2=O (some centres unmarked) [I-323] , pEC50 observed: 7.04
